target desc: M1 muscarinic receptor (Homo sapiens)
Construct: expressed in transfected cells; host or cells: CHO (M1-CHO)
Sequence (P11229 1-460): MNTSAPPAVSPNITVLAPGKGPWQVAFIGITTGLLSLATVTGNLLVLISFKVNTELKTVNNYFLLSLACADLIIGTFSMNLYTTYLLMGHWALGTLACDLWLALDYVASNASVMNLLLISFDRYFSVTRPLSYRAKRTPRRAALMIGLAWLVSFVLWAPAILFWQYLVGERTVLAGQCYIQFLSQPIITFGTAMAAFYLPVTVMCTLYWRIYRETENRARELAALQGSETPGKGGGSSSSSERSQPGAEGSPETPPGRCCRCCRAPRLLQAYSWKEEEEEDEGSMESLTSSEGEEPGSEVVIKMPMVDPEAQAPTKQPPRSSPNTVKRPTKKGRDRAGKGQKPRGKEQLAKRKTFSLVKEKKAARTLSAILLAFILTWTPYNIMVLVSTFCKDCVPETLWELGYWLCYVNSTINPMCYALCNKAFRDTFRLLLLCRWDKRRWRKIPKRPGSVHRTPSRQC
method: Functional mobilization of intracellular calcium (FLIPR), M1-CHO cells
Assay type: cell-based
stated conditions: 100% efficacy = maximum response obtained with the Carbachol control
observable: Emax

molecule=CCOC(=O)N1CCC(CN2CCC(c3cc(F)ccc3OC)CC2)CC1 measured="25 to 100%"
molecule="CCOC(=O)N1C2CCC1CC(N1CCC(c3ccccc3OC(F)(F)F)CC1)C2 (centres unmarked)" measured="25 to 100%"
molecule=COc1ccccc1C1(C#N)CCN(C2CCCCC2)CC1 measured="25 to 100%"
molecule="COc1ccccc1C1CCN(C2CC3CC(C)CC(C3)C2)CC1 (centres unmarked)" measured="< 25%"
molecule="COc1ccc(-c2ccc(S(=O)(=O)N3CCCC3)cc2)cc1C1CCN(C2CC3CCC(C3)C2)CC1 (centres unmarked)" measured="< 25%"

Exercise: I am curious: what Emax value has been reported for COc1ccc(C#N)cc1C1CCN([C@H]2C[C@H]3CC[C@H]2C3)CC1 ?
Solution: 25 to 100%

Exercise: Next record, please: OC1(c2ccc(F)cc2F)CCN(C2C[C@H]3CC[C@H]2C3)CC1 (some centres unmarked)
Solution: < 25%

Exercise: Next record, please: CCCC1CCC(N2CCC(OC)(c3cc(Cl)ccc3OC)CC2)CC1 (centres unmarked)
Solution: 25 to 100%

###

target desc: M1 muscarinic receptor (Homo sapiens)
Construct: expressed in transfected cells; host or cells: CHO (M1-CHO)
Sequence (P11229 1-460): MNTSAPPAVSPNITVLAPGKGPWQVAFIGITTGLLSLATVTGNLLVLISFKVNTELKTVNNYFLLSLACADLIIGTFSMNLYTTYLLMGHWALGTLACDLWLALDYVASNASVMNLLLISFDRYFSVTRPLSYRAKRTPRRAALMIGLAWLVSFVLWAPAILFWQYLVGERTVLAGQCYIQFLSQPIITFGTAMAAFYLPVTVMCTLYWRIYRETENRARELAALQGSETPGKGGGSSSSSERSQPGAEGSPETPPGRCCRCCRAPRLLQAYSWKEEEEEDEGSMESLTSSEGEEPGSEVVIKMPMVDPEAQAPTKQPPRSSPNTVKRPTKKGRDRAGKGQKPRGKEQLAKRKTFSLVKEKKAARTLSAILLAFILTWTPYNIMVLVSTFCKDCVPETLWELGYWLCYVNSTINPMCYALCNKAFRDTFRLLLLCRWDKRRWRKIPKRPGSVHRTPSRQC
method: Functional mobilization of intracellular calcium (FLIPR), M1-CHO cells
Type: cell-based
stated conditions: 100% efficacy = maximum response obtained with the Carbachol control
Each item that follows carries a reported Emax.

molecule="COc1ccc(NC(C)=O)cc1C1CCN(C2C[C@H]3CC[C@H](C2)C3)CC1 (some centres unmarked) [Compound 75]" measured="< 25%"
molecule="CCOC(=O)N1CCC(CN2CCC(c3cc(OC)cc(F)c3F)CC2)CC1 [Compound 177]" measured="25 to 100%"
molecule="COc1cc(F)ccc1C1CCN([C@@H]2C[C@H]3CC[C@H]2C3)CC1 [Compound 35]" measured="25 to 100%"
molecule="COc1cccc(C(=O)COc2ccccc2C2CCN([C@H]3C[C@H]4CC[C@H]3C4)CC2)c1 [Compound 119]" measured="25 to 100%"
molecule="COc1ccccc1C1CCN(C2CCCC2)CC1 [Compound 15]" measured="< 25%"
molecule="CCC1(O)CCC(N2CCC(c3cc(Cl)ccc3OC)CC2)CC1 (centres unmarked) [Compound 324]" measured="< 25%"
molecule="COc1ccc(F)cc1C1(F)CCN(C[C@H]2C[C@H]3C=C[C@H]2C3)CC1 [Compound 134]" measured="25 to 100%"

Exercise: I am curious: what Emax value has been reported for COc1ccccc1C1CCN(C2CCC(C3CCCCC3)CC2)CC1 (centres unmarked) [Compound 175] ?
Solution: < 25%

Reference source for all entries: patent US7880007B2
